The entries below are paired with their reported MIC.
# System: A. baumannii
# protocolDetails: MIC, A. baumannii
# Type: cell-based, Acinetobacter baumannii
# assayContext: Acinetobacter baumannii, read-out: MIC of MM
parameterMeasured: MIC (µM)

1. C[C@@H]1Cc2ccc3ccccc3c2/C1=C1\c2ccccc2Sc2cc(NCCN)ccc21 (racemic) :: 2.5
2. C[C@@H]1Cc2cc(N(C)CCN(C)C)c3ccccc3c2C1=C1c2ccccc2Sc2ccccc21 :: 20
3. C[C@@H]1Cc2cc(NCCN(C)C)c3ccccc3c2C1=C1c2ccccc2Sc2ccccc21 (stereo in doubt) :: 20
4. Br.COc1cc2c(c3ccccc13)/C(=C1\c3ccccc3Sc3ccc(C#CCCCC[P+](c4ccccc4)(c4ccccc4)c4ccccc4)cc31)[C@H](C)C2 (stereo in doubt) :: 2.5
5. C[C@@H]1Cc2ccc3ccccc3c2/C1=C1\c2ccccc2Sc2cc(NCCN(C)C)ccc21 :: 2.5

* * *

compounds and their reported MIC
# System: C. albicans
# protocolDetails: MIC, visible-light-activated MMs and conventional antifungals, C. albicans
# Assay type: cell-based, Candida albicans (ATCC 18804)
# assayContext: Candida albicans, read-out: MIC of antifungal agent
parameterMeasured: MIC (µg/mL)

1. CC[C@H](C)C[C@H](C)CCCCCCCCC(=O)N[C@H]1C[C@@H](O)[C@@H](NCCN)NC(=O)[C@@H]2[C@@H](O)CCN2C(=O)[C@H]([C@H](O)CCN)NC(=O)[C@H]([C@H](O)[C@@H](O)c2ccc(O)cc2)NC(=O)[C@@H]2C[C@@H](O)CN2C(=O)[C@H]([C@@H](C)O)NC1=O [Caspofungin (CAS), Caspofungin] :: 0.25
2. OC(Cn1cncn1)(Cn1cncn1)c1ccc(F)cc1F [Fluconazole (FLC), Fluconazole] :: 0.5
3. C[C@@H](c1ncncc1F)[C@](O)(Cn1cncn1)c1ccc(F)cc1F [Voriconazole (VRC), Voriconazole] :: 0.03
4. Cc1cc(C2CCCCC2)n(O)c(=O)c1 [Ciclopirox (CPX), Ciclopirox] :: 1
5. Nc1nc(=O)[nH]cc1F [5-Fluorocytosine (5-FC), 5-Fluorocytosine] :: 1

* * *

# Tested on: P. aeruginosa
# protocolDetails: MIC, P. aeruginosa
# Assay type: cell-based, Pseudomonas aeruginosa
# assayContext: Pseudomonas aeruginosa, read-out: MIC of MM
parameterMeasured: MIC (µM)

1. Br.COc1cc2c(c3ccccc13)/C(=C1\c3ccccc3Sc3ccc(C#CCCCC[P+](c4ccccc4)(c4ccccc4)c4ccccc4)cc31)[C@H](C)C2 (stereo in doubt) :: 0.625
2. C[C@@H]1Cc2cc(NCCN(C)C)c3ccccc3c2C1=C1c2ccccc2Sc2ccccc21 (stereo in doubt) :: 5
3. C[C@@H]1Cc2ccc3ccccc3c2/C1=C1\c2ccccc2Sc2cc(NCCN(C)C)ccc21 :: 0.625
4. C[C@@H]1Cc2cc(N(C)CCN(C)C)c3ccccc3c2C1=C1c2ccccc2Sc2ccccc21 :: 5
5. C[C@@H]1Cc2ccc3ccccc3c2/C1=C1\c2ccccc2Sc2cc(NCCN)ccc21 (racemic) :: 0.625

* * *

# Test system: normal human dermal fibroblasts (NHDFs)
# protocolDetails: Toxicity to NHDF (CellTiter-Glo)
# Assay type: cell-based
# assayContext: 5 min, 405 nm light 146 mW cm^−2, 5 min, read-out: IC50 (NHDF viability)
pIC50: −log10 of the molar value.
We begin with a simple list: items and their reported pIC50.
parameterMeasured: pIC50

1) C[C@@H]1Cc2ccc3ccccc3c2/C1=C1\c2ccccc2Sc2cc(NCCN(C)C)ccc21 :: 5.30
2) C[C@@H]1Cc2ccc3ccccc3c2/C1=C1\c2ccccc2Sc2cc(NCCN)ccc21 (racemic) :: 5.00

* * *

The reader will find reported MIC values listed item by item below.
# Test system: S. aureus
# protocolDetails: MIC, S. aureus
# Assay type: cell-based, Staphylococcus aureus
# assayContext: Staphylococcus aureus, read-out: MIC of MM
parameterMeasured: MIC (µM)

1) C[C@@H]1Cc2ccc3ccccc3c2/C1=C1\c2ccccc2Sc2cc(NCCN(C)C)ccc21 [MM 1] :: 0.156
2) C[C@@H]1Cc2cc(N(C)CCN(C)C)c3ccccc3c2C1=C1c2ccccc2Sc2ccccc21 [MM 3] :: 1.25
3) Br.COc1cc2c(c3ccccc13)/C(=C1\c3ccccc3Sc3ccc(C#CCCCC[P+](c4ccccc4)(c4ccccc4)c4ccccc4)cc31)[C@H](C)C2 (stereo in doubt) [MM 4] :: 0.078
4) C[C@@H]1Cc2ccc3ccccc3c2/C1=C1\c2ccccc2Sc2cc(NCCN)ccc21 (racemic) [MM 6] :: 0.078
5) C[C@@H]1Cc2cc(NCCN(C)C)c3ccccc3c2C1=C1c2ccccc2Sc2ccccc21 (stereo in doubt) [MM 2] :: 1.25
